System: ACHN renal
procedure-details: NCI-60 one-dose screen, 48 h (100 = growth as untreated, 0 = no growth, -100 = all killed)
experimental-setup: 10 µM unless noted
The panel holds about 83,000 compounds, 20% with a hit somewhere; the sample as a whole holds those more often. Activity calls are given as the source filed them. How the source made its calls: active means growth percent below 10; inactive means the rest.
attribute-measured: growth

Reference set (8 entries):
given-smiles	measured-on	growth
Oc1ccccc1C=NCCN=Cc1ccccc1O.[Fe]	ACHN renal	92.3% (inactive)
S=P(SP(=S)(c1ccccc1)c1ccccc1)(c1ccccc1)c1ccccc1	ACHN renal	99.4% (inactive)
CN(C)c1ccc(C=C2C(=O)NC(=O)NC2=O)cc1	ACHN renal	89.3% (inactive)
CC[C@H](C)[C@H](NC(=O)C12CC(NC)(C1)C2)C(=O)N(C)[C@H](C[C@@H](OC(C)=O)c1nc(C(=O)N[C@@H](Cc2ccccc2)C[C@H](C)C(=O)OC)cs1)C(C)C	ACHN renal	33.9% (inactive)
C[C@@]12CCCc3coc(c31)C(=O)c1cc3c(cc12)C(=O)C1=C(NCCS1(=O)=O)C3=O	ACHN renal	30.6% (inactive)
C[C@]12CCc3sc(Nc4ccc(F)cc4)nc3C1=CC[C@@H]1[C@@H]2CC[C@]2(C)C(=O)CC[C@@H]12	ACHN renal	77.9% (inactive)
N#CCc1ccc(CC#N)cc1	ACHN renal	103% (inactive)
COC[C@H]1OC(=O)c2coc3c2[C@@]1(C)C1=C(C3=O)[C@@H]2CCC(=O)[C@@]2(C)C[C@H]1OC(C)=O	ACHN renal	42.2% (inactive)

Moving on to the next molecule.
Exercise: Report value only: growth, ACHN renal, CC(C)COC(=O)Cc1ccccc1
Key: 108% (inactive)
